Biological target: T1, EsCas13d, nuclease-dead (Eubacterium siraeum, UniProt B0MS50, R295A;H300A;R849A;H854A)
T1 sequence: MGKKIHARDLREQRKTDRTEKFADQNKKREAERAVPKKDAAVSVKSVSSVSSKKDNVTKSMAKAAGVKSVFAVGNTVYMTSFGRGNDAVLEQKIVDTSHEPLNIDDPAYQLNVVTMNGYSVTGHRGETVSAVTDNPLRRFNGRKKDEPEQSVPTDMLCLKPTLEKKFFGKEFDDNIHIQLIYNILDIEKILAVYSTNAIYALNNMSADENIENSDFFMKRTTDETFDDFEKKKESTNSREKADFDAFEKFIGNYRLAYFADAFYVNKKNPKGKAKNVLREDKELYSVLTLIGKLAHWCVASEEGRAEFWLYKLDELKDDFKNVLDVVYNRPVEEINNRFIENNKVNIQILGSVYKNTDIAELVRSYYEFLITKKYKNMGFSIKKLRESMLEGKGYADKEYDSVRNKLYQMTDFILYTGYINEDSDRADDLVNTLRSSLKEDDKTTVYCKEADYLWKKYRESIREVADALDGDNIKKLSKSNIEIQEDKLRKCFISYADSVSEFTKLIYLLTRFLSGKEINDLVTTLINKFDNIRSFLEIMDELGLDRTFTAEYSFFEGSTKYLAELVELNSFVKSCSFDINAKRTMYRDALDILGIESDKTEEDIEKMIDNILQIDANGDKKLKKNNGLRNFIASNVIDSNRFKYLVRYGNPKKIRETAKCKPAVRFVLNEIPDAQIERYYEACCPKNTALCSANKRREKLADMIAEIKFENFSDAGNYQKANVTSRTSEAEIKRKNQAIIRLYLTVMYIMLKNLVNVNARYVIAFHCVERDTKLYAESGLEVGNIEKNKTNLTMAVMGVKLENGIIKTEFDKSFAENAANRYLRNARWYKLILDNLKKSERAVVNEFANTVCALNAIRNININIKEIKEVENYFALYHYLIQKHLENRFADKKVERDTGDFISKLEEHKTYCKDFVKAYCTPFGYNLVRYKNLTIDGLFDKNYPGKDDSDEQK
Experiment: crRNA (strand 1, pre-loaded); Mg2+; 40 mM Tris-HCl pH 7.5, 150 mM NaCl, 6 mM MgCl2, 1 mM DTT, 0.1% Tween-20, 0.2 mg/ml BSA; 25 C; 10 min per concentration, then washed
Conditions: tags: His6-TwinStrep-SUMO cleaved; N-terminal SNAP kept (SNAP-Surface 488); label: 3' end held by stalled T7 RNA polymerase
pKd: −log10 of the molar value.
The threshold is inclusive: pKd of exactly 8 counts as fulfilled; values below receive not fulfilled.

Below, 2 binders whose answers are already recorded.
• target 1 G5C,G12C (mixed) RNA 1: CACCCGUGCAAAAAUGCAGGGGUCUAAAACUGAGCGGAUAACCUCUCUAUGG RNA 2: GGGAAUGGAUCCACAUCUACGAAUUCGUACCAUAGAGAGCUUAUCCCCUCACCGAGAUCGGAAGAGCACACGU = not fulfilled
• target 2 MT 5'PFS GCA 3'PFS UGU (mixed) RNA 1: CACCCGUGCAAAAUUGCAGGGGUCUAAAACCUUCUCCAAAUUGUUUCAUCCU RNA 2: GGGAAUGGAUCCACAUCUACGAAUUCGCAAGGAUGAAACAAUUUGGAGAAGUGUAGAUCGGAAGAGCACACGU = not fulfilled

Next:
Incoming: Dear colleague, could you confirm whether target 2 MT 5'PFS CUG 3'PFS CGG (mixed) RNA 1: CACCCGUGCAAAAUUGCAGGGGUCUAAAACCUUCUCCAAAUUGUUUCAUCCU RNA 2: GGGAAUGGAUCCACAUCUACGAAUUCCUGAGGAUGAAACAAUUUGGAGAAGCGGAGAUCGGAAGAGCACACGU has pKd at or above 8?
Outgoing: fulfilled
